- assay_target: Neuropeptide Y receptor type 2 (Homo sapiens); note: in other assays of this panel Not Active means under 50% inhibition at 10 µM
- Sequence (P49146 whole entry): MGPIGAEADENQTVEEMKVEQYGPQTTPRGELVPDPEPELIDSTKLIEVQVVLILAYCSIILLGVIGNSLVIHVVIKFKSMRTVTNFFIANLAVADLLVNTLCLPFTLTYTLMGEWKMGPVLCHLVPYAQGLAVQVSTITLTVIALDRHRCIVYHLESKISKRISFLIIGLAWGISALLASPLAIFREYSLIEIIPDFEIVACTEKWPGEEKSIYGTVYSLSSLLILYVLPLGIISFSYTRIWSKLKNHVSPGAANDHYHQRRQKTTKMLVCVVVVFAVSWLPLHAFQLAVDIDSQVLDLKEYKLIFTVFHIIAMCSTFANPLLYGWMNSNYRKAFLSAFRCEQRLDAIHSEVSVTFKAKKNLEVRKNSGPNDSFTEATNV
- Type: cell membranes, Membrane
- conditions_used: kan-ts
readout_name: IC50

molecule=CN1C[C@@H]2C[C@H]1CN2c1cc2c(cc1F)c(=O)c(C(=O)O)cn2C1CC1 measured="Not Active"
molecule=C#C[C@]1(O)CC[C@H]2[C@@H]3CCC4=CC(=O)CC[C@]4(C)[C@H]3CC[C@@]21C measured="Not Active"
molecule="C[C@H]1O[C@H](O[C@H]2[C@H](O)[C@@H](O)[C@@H](O[C@H]3[C@H](O)[C@@H](O)C(O)O[C@@H]3CO)O[C@@H]2CO)[C@H](O)[C@@H](O)[C@@H]1N[C@H]1C=C(CO)[C@@H](O)[C@H](O)[C@H]1O (stereo partly drawn)" measured="Not Active"

* * *

- test_summary: DRUGMATRIX: Tumor Necrosis Factor (TNF), Non-Selective radioligand binding (ligand: [125I] TNF-alpha)
- Assay type: cell membranes, Membrane
- conditions_used: u-937; Not Active = under 50% inhibition at 10 µM
readout_name: IC50

molecule=CCN(C(C)=O)c1cccc(-c2ccnc3c(C#N)cnn23)c1 measured="Not Active"
molecule=CO/N=C(\C(=O)N[C@@H]1C(=O)N2C(C(=O)O)=C(COC(C)=O)CS[C@H]12)c1csc(N)n1 measured="Not Active"
molecule="COc1ccnc(C[S+]([O-])c2nc3ccc(OC(F)F)cc3[nH]2)c1OC (stereo not given)" measured="Not Active"
molecule="CC(=N)S [THIOACETAMIDE]" measured="Not Active"
molecule=CN(C)CCC=C1c2ccccc2CCc2ccccc21 measured="Not Active"

* * *

- assay_target: Endothelin-1 receptor (Homo sapiens); note: in other assays of this panel Not Active means under 50% inhibition at 10 µM
- Sequence (P25101 whole entry): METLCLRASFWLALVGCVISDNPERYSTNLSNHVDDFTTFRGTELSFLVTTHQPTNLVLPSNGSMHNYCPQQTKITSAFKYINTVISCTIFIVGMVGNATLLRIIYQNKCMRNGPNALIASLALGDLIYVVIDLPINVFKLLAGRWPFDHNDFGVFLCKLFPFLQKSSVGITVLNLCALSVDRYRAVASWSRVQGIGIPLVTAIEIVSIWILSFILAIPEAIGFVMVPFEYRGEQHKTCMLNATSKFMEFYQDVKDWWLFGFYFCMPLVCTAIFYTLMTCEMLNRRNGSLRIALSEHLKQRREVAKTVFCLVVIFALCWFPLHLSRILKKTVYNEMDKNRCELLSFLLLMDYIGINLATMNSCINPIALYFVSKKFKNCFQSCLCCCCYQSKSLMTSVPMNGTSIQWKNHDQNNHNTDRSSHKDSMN
- Format: cell membranes, Membrane
- conditions_used: cho-k1
readout_name: IC50

compound=CC(O)(P(=O)(O)O)P(=O)(O)O measured="Not Active"
compound=O=C(O)COc1ccc(C(=O)c2cccs2)c(Cl)c1Cl measured="Not Active"
compound="CC1CCC(NC(=O)N(CCCl)N=O)CC1 (stereo not given)" measured="Not Active"
compound="CC(C)(C)NCC(O)COc1cccc2c1CC(O)C(O)C2 (stereo not given)" measured="Not Active"
compound=COC(=O)Nc1nc2cc(C(=O)c3ccc(F)cc3)ccc2[nH]1 measured="Not Active"
compound="CS(=O)(=O)Nc1ccc([N+](=O)[O-])cc1Oc1ccccc1 [NIMESULIDE]" measured="Not Active"
compound=N=C(N)c1ccc(OCCCCCOc2ccc(C(=N)N)cc2)cc1 measured="Not Active"
compound=CC(C)NC[C@H](O)COc1cccc2ccccc12 measured="Not Active"
compound="CCn1cc(C(=O)O)c(=O)c2cc(F)c(N3CCNC(C)C3)c(F)c21 (stereo not given)" measured="Not Active"
compound=CN1CCC(=C2c3ccccc3CC(=O)c3sccc32)CC1 measured="Not Active"
